B1: TPR t1 (parent)
chain: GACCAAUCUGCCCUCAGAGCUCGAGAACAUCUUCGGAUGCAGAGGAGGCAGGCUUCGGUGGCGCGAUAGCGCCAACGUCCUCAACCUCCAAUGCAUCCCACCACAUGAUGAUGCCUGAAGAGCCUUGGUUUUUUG

# Variants of: B1
# Assay remarks: polymerase ribozyme fitness, log enrichment relative to wild type (log ratio); higher = more active; in vitro selection for triplet polymerase activity
We use -1 as the dividing line for polymerase ribozyme fitness (log ratio): on or above the line is TRUE, below is FALSE.

Would you say C72A C85G G93A U106C shows polymerase ribozyme fitness (log ratio) at minimum -1?
FALSE

Reported polymerase ribozyme fitness (log ratio) reaches at least -1 for C28G A50U ?
FALSE

Could you tell me if the measured polymerase ribozyme fitness (log ratio) of G110A U131G reaches -1 or more?
FALSE
